Source of measurements: patent US6608086B2

Structures can show the parent of a compound that is named as a salt.
Listed here: items and their measured melting point.

Worked cases, melting point given:
>>> result_value("CCC1=C(C(N)=O)C(c2ccc([N+](=O)[O-])cc2)C(C(=O)NCCCN2CCC(c3ccc(OC)cc3)(c3ccc(OC)cc3)CC2)=C(CC)N1 (centres unmarked) (as salt: hydrochloride)")
"175 °C (dec.)"
>>> result_value("CC1=C(C(N)=O)C(c2ccc([N+](=O)[O-])cc2)C(C(=O)NCCCN2CCC(c3ccccc3)CC2)=C(C)N1 (centres unmarked)")
"100 to 105 °C"
>>> result_value("CCC1=C(C(N)=O)C(c2ccc([N+](=O)[O-])cc2)C(C(=O)NCCCN2CCC(c3ccccc3)(c3ccccc3)CC2)=C(C)N1 (centres unmarked)")
"120 to 124 °C"
>>> result_value("CCNC(=O)C1=C(CC)NC(COCCN)=C(C(=O)NCCCN2CCC(C(=O)OCC)(c3ccccc3)CC2)C1c1ccc([N+](=O)[O-])cc1 (centres unmarked)")
"112 to 114 °C"

Prompt: For COC(=O)C1=C(C)NC(c2ccoc2)=C(C(=O)NCCCN2CCC(c3ccccc3)CC2)C1c1ccc([N+](=O)[O-])cc1 (centres unmarked) (as salt: hydrochloride) (hydrate or solvate) [Example 65, hydrochloride hydrate] , what is its reported melting point?
Completion: 205 to 210 °C (dec.)
